Target: Muscarinic acetylcholine receptor M3 (Homo sapiens)
Sequence (P20309 whole entry): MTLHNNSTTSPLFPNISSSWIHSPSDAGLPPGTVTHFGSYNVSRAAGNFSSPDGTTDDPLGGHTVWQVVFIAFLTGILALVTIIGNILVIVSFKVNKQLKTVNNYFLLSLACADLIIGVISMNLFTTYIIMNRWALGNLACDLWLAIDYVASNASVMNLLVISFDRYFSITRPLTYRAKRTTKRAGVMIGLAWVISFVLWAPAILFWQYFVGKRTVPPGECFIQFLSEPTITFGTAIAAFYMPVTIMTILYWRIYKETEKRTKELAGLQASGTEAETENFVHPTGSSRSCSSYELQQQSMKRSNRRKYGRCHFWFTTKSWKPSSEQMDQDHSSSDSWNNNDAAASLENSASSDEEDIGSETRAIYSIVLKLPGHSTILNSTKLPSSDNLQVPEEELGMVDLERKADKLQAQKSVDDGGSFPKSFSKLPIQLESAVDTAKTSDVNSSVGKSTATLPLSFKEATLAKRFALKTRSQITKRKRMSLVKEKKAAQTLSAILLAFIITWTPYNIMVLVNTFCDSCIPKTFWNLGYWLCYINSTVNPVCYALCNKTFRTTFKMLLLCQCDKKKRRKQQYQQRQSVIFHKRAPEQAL
pKi: −log10 of the molar value.
MEASURED ENDPOINT: pKi

1. Cc1c(NC2CC2)nc(C2CC2)nc1N1CCCCCCC1
7.80
2. Cc1c(NC2CC2)nc(C2CC2)nc1N1CCSCC1
7.10
3. CCc1c(NC2CC2)nc(C2CC2)nc1N1CCSCC1
7.00

1 = Brc1c(NC2CC2)nc(C2CC2)nc1N1CCCCCC1
2 = Cc1c(NCCc2cccs2)nc(C2CC2)nc1NC1CC1
3 = Cc1c(NC2CC2)nc(C2CC2)nc1N1CCC(C)CC1
// ranking: key=pKi, reverse=True Output spec: labels arranged per the requested ranking.
3, 2, 1
(3: 7.80, 2: 7.10, 1: 6.50)
